study system: Escherichia coli DNA gyrase A/B tetramer (Escherichia coli, UniProt P0AES4+P0AES6)
Sequence (P0AES4 whole entry, one chain of several): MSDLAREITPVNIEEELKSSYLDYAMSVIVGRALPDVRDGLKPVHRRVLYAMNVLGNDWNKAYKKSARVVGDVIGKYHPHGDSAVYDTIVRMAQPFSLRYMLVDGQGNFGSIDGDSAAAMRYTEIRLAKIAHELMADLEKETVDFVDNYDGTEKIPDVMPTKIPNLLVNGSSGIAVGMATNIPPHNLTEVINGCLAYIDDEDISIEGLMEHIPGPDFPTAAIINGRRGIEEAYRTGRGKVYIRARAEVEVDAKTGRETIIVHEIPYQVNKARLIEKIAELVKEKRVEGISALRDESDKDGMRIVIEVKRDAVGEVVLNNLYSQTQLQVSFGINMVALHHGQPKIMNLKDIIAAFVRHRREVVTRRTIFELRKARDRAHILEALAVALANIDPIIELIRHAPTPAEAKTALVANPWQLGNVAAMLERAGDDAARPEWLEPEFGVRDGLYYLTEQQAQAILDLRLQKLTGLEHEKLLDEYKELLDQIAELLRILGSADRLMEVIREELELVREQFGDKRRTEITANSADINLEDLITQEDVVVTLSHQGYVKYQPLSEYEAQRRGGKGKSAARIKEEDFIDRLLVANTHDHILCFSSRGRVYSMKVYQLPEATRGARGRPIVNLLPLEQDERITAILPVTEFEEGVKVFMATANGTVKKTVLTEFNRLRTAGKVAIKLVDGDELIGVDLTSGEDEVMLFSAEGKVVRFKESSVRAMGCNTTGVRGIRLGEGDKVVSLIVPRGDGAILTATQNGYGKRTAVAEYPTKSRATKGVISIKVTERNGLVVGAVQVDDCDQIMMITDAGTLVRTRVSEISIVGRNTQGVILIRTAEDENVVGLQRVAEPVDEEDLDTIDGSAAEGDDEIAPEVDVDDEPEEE
method: DNA gyrase supercoiling activity fluorescence polarisation assay
Assay type: biochemical
observation type: IC50 (nM)
One number for each entry, in nM.

Use the examples below as a reference point.
> print(dat)
                                   molecule  observation.type  quantitative.result
1  Cc1nnc(C#Cc2cc3c(cc2F)N2C[C@@H](C)O[C@@H](C)[C@@H]2C2(C3)C(=O)NC(=O)NC2=O)s1 (relative stereo) [Example 25]              IC50                  870
2  C[C@@H]1CN2c3c(cc(C(=O)NC4CCS(=O)(=O)C4)c(F)c3F)CC3(C(=O)NC(=O)NC3=O)[C@H]2[C@H](C)O1 (relative stereo) [Example 62]              IC50                 7100
3  C[C@@H]1CN2c3c(cc(C(=O)NC4CCNCC4)c(F)c3F)CC3(C(=O)NC(=O)NC3=O)[C@H]2[C@H](C)O1 (relative stereo) [Example 71]              IC50                 5970
4  C[C@@H]1CN2c3cc(F)c(C#Cc4cnccn4)cc3CC3(C(=O)NC(=O)NC3=O)[C@H]2[C@H](C)O1 (relative stereo) [Example 31]              IC50                  980
5  C[C@@H]1CN2c3c(cc(C(=O)NC4CCN(c5ccccn5)CC4)c(F)c3F)CC3(C(=O)NC(=O)NC3=O)[C@H]2[C@H](C)O1 (relative stereo) [Example 68]              IC50                 4150

Please give IC50 for each item listed below.
1. C[C@@H]1CN2c3c(cc(C(=O)NC4CCCN(C)C4)c(F)c3F)CC3(C(=O)NC(=O)NC3=O)[C@H]2[C@H](C)O1 (relative stereo) [Example 69]
2. C[C@H]1CN2c3c(cc(C#Cc4nncs4)c(F)c3F)CC3(C(=O)NC(=O)NC3=O)[C@@H]2[C@@H](C)O1 (relative stereo) [Example 7]
3. C[C@@H]1CN2c3c(F)cc(C#Cc4cnccn4)cc3CC3(C(=O)NC(=O)NC3=O)[C@H]2[C@H](C)O1 (relative stereo) [Example 43]
4. C/C(=N\NC(N)=O)c1cc2c(c(F)c1F)N1C[C@@H](C)O[C@@H](C)[C@@H]1C1(C2)C(=O)NC(=O)NC1=O (relative stereo) [Example 54]
5. C[C@@H]1CN2c3cc(F)c(C#Cc4nncs4)cc3CC3(C(=O)NC(=O)NC3=O)[C@H]2[C@H](C)O1 (relative stereo) [Example 24]

A)
8680
410
1470
2300
350

Please give IC50 for each item listed below.
1. C/C(=N\NC(=O)OC(C)(C)C)c1cc2c(c(F)c1F)N1C[C@@H](C)O[C@@H](C)[C@@H]1C1(C2)C(=O)NC(=O)NC1=O (relative stereo) [Example 50]
2. C[C@H]1CN2c3c(cc(C#Cc4cc5ccccc5s4)c(F)c3F)CC3(C(=O)NC(=O)NC3=O)[C@@H]2[C@@H](C)O1 (racemic) [Example 11]

A)
1: 2360; 2: 5490

---

study system: Escherichia coli DNA gyrase A/B tetramer (Escherichia coli, UniProt P0AES4+P0AES6)
method: DNA gyrase supercoiling activity fluorescence polarisation assay
Assay type: biochemical
observation type: pIC50
One number for each entry, as −log10 of the molar value.

> print(dat)
                                   compound  quantitative.result
1  C/C(=N\N1CC(=O)NC1=O)c1cc2c(c(F)c1F)N1C[C@@H](C)O[C@@H](C)[C@@H]1C1(C2)C(=O)NC(=O)NC1=O (relative stereo)                 4.89
2  C/C(=N\NC(=O)Nc1ccccc1)c1cc2c(c(F)c1F)N1C[C@@H](C)O[C@@H](C)[C@@H]1C1(C2)C(=O)NC(=O)NC1=O (relative stereo)                 5.26
3  C[C@@H]1CN2c3c(cc(C#Cc4nccn4C)c(F)c3F)CC3(C(=O)NC(=O)NC3=O)[C@H]2[C@H](C)O1 (racemic)                 6.16
4  Cc1nnc(C#Cc2cc3c(c(F)c2F)N2C[C@H](C)O[C@H](C)[C@H]2C2(C3)C(=O)NC(=O)NC2=O)s1 (relative stereo)                 5.73
5  C[C@@H]1CN2c3ccc(C#Cc4nccn4C)cc3CC3(C(=O)NC(=O)NC3=O)[C@H]2[C@H](C)O1 (relative stereo)                 6.20
6  C[C@@H]1CN2c3c(F)cc(C#Cc4cccs4)cc3CC3(C(=O)NC(=O)NC3=O)[C@H]2[C@H](C)O1 (relative stereo)                 5.94
7  CC(=O)N/N=C/c1cc2c(c(F)c1F)N1C[C@@H](C)O[C@@H](C)[C@@H]1C1(C2)C(=O)NC(=O)NC1=O (relative stereo)                 5.99
8  C/C(=N\Nc1ccccc1)c1cc2c(c(F)c1F)N1C[C@@H](C)O[C@@H](C)[C@@H]1C1(C2)C(=O)NC(=O)NC1=O (relative stereo)                 6.01

Please give pIC50 for each item listed below.
1. C[C@@H]1CN2c3ccc(C#Cc4ccncc4)cc3CC3(C(=O)NC(=O)NC3=O)[C@H]2[C@H](C)O1 (relative stereo)
2. C[C@@H]1CN2c3cc(F)c(C#Cc4cccnc4)cc3CC3(C(=O)NC(=O)NC3=O)[C@H]2[C@H](C)O1 (relative stereo)
3. Cc1nnc(C)n1/N=C/c1cc2c(c(F)c1F)N1C[C@@H](C)O[C@@H](C)[C@@H]1C1(C2)C(=O)NC(=O)NC1=O (relative stereo)
4. CC(=O)N/N=C(\C)c1cc2c(c(F)c1F)N1C[C@@H](C)O[C@@H](C)[C@@H]1C1(C2)C(=O)NC(=O)NC1=O (relative stereo)
5. C[C@@H]1CN2c3c(F)cc(C#Cc4cc5ccccc5s4)cc3CC3(C(=O)NC(=O)NC3=O)[C@H]2[C@H](C)O1 (racemic)
6. C[C@@H]1CN2c3ccc(C#Cc4ccccn4)cc3CC3(C(=O)NC(=O)NC3=O)C2[C@H](C)O1 (relative stereo)

A)
5.61
5.65
5.44
5.89
5.15
5.68

Taken from patent US20100261719A1.
